Recorded Ki by entry
Target: GCase enzyme (Cerezyme®, recombinant human GCase) (Homo sapiens, UniProt P04062, R534H)
Sequence (P04062 40-536 R534H limits assumed): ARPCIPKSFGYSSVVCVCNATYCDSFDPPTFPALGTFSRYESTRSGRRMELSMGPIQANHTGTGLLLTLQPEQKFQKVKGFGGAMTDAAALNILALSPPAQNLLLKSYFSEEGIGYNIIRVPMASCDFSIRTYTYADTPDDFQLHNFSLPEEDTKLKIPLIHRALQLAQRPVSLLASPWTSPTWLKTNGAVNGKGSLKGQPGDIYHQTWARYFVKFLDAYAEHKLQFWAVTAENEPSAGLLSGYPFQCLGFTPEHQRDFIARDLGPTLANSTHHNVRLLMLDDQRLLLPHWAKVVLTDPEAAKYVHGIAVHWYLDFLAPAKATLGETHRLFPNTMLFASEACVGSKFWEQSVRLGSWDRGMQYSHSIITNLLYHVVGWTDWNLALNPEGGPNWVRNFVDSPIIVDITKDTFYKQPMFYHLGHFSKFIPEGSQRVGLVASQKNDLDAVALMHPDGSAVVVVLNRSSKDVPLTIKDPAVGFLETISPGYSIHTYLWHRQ
Details: read-out: GCase Ki; from IC50 by Cheng-Prusoff equation, GCase Km 7.9 mM, pH 7.0
Enter your answer as a number in nM; do not include the unit.

                     compound_string  value_type  measurement_units  readout_number
0  C[C@@H]1[C@@H](O)[C@H](O)CNC12CC2          Ki                 nM             2.6

INPUT: Entry under review: O[C@H]1[C@H](O)CNC2(CC2)[C@@H]1C(F)F . Reported Ki?
OUTPUT: 8
